Details: in PEG-400, 298.2 K
result-type: solubility (mole fraction)
Lab note: record just the number, no unit beside it.

[ask] Data request, read-out solubility (mole fraction), for Cn1c([N+](=O)[O-])cnc1N1CCN(S(C)(=O)=O)C1=O
[reply] 0.0176

====

Details: in 1,4-butanediol, 298.2 K
result-type: solubility (mole fraction)
Give the value as a plain number.

[ask] Fill blank: measured solubility (mole fraction) of the compound Cn1c([N+](=O)[O-])cnc1N1CCN(S(C)(=O)=O)C1=O is ____.
[reply] 0.00132

====

Details: in PEG-200, 303.2 K
result-type: solubility (mole fraction)
Hey, just send me the number, nothing else.

[ask] Reported solubility (mole fraction) for Cn1c([N+](=O)[O-])cnc1N1CCN(S(C)(=O)=O)C1=O : what is it?
[reply] 0.0153
